# key: entry, value: pIC50
Test system: Neutrophil
Assay: Inhibition of PAF-induced exocytosis in neutrophil by spectrophotometer
Assay type: functional, cell-based
pIC50: −log10 of the molar value.

COMPOUND: O=C1C[C@H](c2ccc(O)c(O)c2)Oc2c1c(O)cc1c2[C@@H]2C[C@@](c3ccc(O)c(O)c3)(Oc3cc(O[C@@H]4O[C@H](CO)[C@@H](O)[C@H](O)[C@H]4O)cc(O)c32)O1
pIC50: 4.31
--
COMPOUND: C[C@@H]1C(=O)O[C@H]2[C@H](O)[C@@]34[C@H]5C[C@@H](C(C)(C)C)[C@]36[C@@H](OC(=O)[C@@H]6O)O[C@@]4(C(=O)O5)[C@@]12O [GINKOLIDE B]
pIC50: 4.10
--
COMPOUND: O=C1C[C@H](c2ccc(O)cc2)Oc2c1c(O)cc1c2[C@@H]2C[C@@](c3ccc(O)c(O)c3)(Oc3cc(O[C@@H]4O[C@H](CO)[C@@H](O)[C@H](O)[C@H]4O)cc(O)c32)O1
pIC50: 4.41

---

Test: Inhibition of prostaglandin synthesis in bovine seminal vesicle microsomes using [14C]arachidonic acid
Type: functional, Bos taurus, Microsome
Details: read-out: IC50
ASSAY READOUT: IC50 (µM)

COMPOUND STRUCTURE: O=C1C[C@H](c2ccc(O)cc2)Oc2c1c(O)cc1c2[C@@H]2C[C@@](c3ccc(O)c(O)c3)(Oc3cc(O[C@@H]4O[C@H](CO)[C@@H](O)[C@H](O)[C@H]4O)cc(O)c32)O1
ASSAY READOUT: IC50
MEASURED VALUE: 13.1
--
COMPOUND STRUCTURE: COc1ccc2c(c1)c(CC(=O)O)c(C)n2C(=O)c1ccc(Cl)cc1
ASSAY READOUT: IC50
MEASURED VALUE: 0.56
--
COMPOUND STRUCTURE: O=C1C[C@H](c2ccc(O)c(O)c2)Oc2c1c(O)cc1c2[C@@H]2C[C@@](c3ccc(O)c(O)c3)(Oc3cc(O[C@@H]4O[C@H](CO)[C@@H](O)[C@H](O)[C@H]4O)cc(O)c32)O1
ASSAY READOUT: IC50
MEASURED VALUE: 9.2
